Each item that follows carries a reported composite z-score.
# experimental.details: binders of probe aFSTL3 on microarray, primary screen, stem cell growth factor project, biochemical, small-molecule microarray, fluorescence 635/667 (AID 1064);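 note: measures binding of the biotinylated anti-FSTL3 antibody to printed compounds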
# study.conditions: higher = more signal
Give your answer as a number; write no unit.

Some solved cases for reference:
Return value of composite z-score for input COC(=O)c1c2oc(c1C(=O)OC)C(=O)N(C)Cc1cn(nn1)C[C@H](Cc1ccccc1)NC(=O)N[C@H](CO)CC2 , no commentary.
-0.239

Return value of composite z-score for input COc1ccc([Si](C)(C)[C@@H]2[C@@H](CC(=O)N(CCO)Cc3ccccc3)O[C@]3(C(=O)N(c4ccccc4)c4ccccc43)[C@H]2C)cc1 , no commentary.
-0.337

Return value of composite z-score for input O=C1N(Cc2ccccc2)Cc2ccccc2[C@@H]2OC(c3ccc(OCCCO)cc3)=N[C@]12CCS(=O)(=O)c1ccccc1 , no commentary.
0.184

Return value of composite z-score for input COC(=O)CCCCCCC(=O)Nc1ccc(NC(=O)CCCC[P+](c2ccccc2)(c2ccccc2)c2ccccc2)cc1 , no commentary.
-0.493

Return value of composite z-score for input COC(=O)[C@@]1(Cc2ccc(OC)cc2)[C@H]2c3cc(C(=O)N(C)C)n(Cc4ccc(Cl)c(C(F)(F)F)c4)c3C[C@H]2CN1C(=O)c1ccccc1 , no commentary.
1.33

Return value of composite z-score for input COc1ccc(-c2cc3c(c(CCc4ccccc4)n2)[Si](C(C)C)(C(C)C)OC3)cn1 , no commentary.
-0.33

Return value of composite z-score for input C=CCOC(=O)[C@H]1[C@@H]2C(=O)O[C@@H](c3ccccc3)[C@@H](c3ccccc3)N2[C@@H](c2ccc(OCCOC(=O)[C@H]3C[C@H]4C(=O)N[C@@H](CC(C)C)C(=O)N4[C@H]3c3cccc(OCCO)c3)cc2)[C@]12C(=O)Nc1ccc(I)cc12 , no commentary.
-0.475

Return value of composite z-score for input O=C1O[C@H](c2ccccc2)[C@H](c2ccccc2)N2[C@H]1[C@@H](C(=O)Nc1nc3ccccc3s1)[C@]1(C(=O)Nc3ccccc31)[C@H]2c1ccc(OCCO)cc1 , no commentary.
-0.401

Return value of composite z-score for input COCCOC(=O)N1C(=O)[C@@]2(c3cc(C#CCNC(N)=O)ccc31)[C@H](C(=O)N1CCc3cc(OC)c(OC)cc3C1)[C@H]1C(=O)O[C@H](c3ccccc3)[C@H](c3ccccc3)N1[C@@H]2c1ccccc1OCCO , no commentary.
-0.178

Return value of composite z-score for input C=C(C)[C@@H]1CC=C(C(O)C2C=CC3C(=O)N(c4ccccc4)C(=O)C3N2Nc2ccccc2F)CC1 (stereo partly drawn) , no commentary.
0.264

More entries:
Return value of composite z-score for input CCOC(=O)C1=C[C@@H](c2ccccc2)N(S(=O)(=O)c2ccc(C)cc2)[C@H]1c1ccccc1Cl , no commentary.
-0.508

Return value of composite z-score for input CN(C)C(=O)[C@@]1(Cc2ccccc2CN=[N+]=[N-])N=C(c2ccc(OCCCO)cc2)O[C@H]1c1ccccc1CN=[N+]=[N-] , no commentary.
0.262

Return value of composite z-score for input COC(=O)Cn1c(C(=O)N(C)C)cc2c1C[C@H]1CN(C(=O)c3ccccc3)[C@@](Cc3ccc(F)cc3)(C(=O)OC)[C@@H]21 , no commentary.
0.0501
